B1: VH:VL chains; a variant is named by its letters at X, in order (parent)
chain 1: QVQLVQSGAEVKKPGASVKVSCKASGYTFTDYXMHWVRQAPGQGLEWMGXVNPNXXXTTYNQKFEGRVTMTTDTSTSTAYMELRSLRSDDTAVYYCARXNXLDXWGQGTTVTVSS
chain 2: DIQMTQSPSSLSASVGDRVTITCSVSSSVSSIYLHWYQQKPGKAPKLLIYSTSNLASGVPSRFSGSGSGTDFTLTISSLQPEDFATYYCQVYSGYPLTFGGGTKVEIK

# Variants of: B1
# METHOD: yeast display scFab, FACS + sequencing
# APPLIED_CONDITIONS: with MET
The other results are listed elsewhere or left out. No count for the full screen is at hand.
ASSAY_READOUT: antigen binding call

Worked examples follow.
DAGGGAAV: no binding
YRGRGVSS: binds
DRAGDSGF: no binding
YKRGGSWD: binds
DGGRGDVV: no binding
YRRRGAAY: binds
FRGEGSVS: binds
FETGGYVY: no binding

Problem: Query (variant): "VRAGADVY" ; field requested: antigen binding call
Result: no binding

Problem: "DRREGYGA" ?
Result: no binding

Problem: Can you handle "YRKGGDLY" next?
Result: no binding
